Where do the numbers come from? From patent US20240279283A1.

Tested on: E. coli BW25113
Experiment: Minimum Inhibitory Concentration (MIC) determination, E. coli BW25113
Assay type: cell-based
Design: unit not given here
Conditions: LB broth, 5×10^5 CFU/ml, 37° C., 18 hours, scored by eye
MIC E. coli BW25113 WUXI::MIC by entry:
Please reply with the value in numeric form only.

# MOLECULE, ASSAYED TARGET, RESULT
measured = [
    ("CC[C@@H]1NC(=O)[C@H](Cc2ccccc2)NC(=O)CSC[C@@H](C(=O)NCC(N)=O)NC(=O)[C@H](Cc2cncn2C)NC(=O)[C@H](CCCNC(=N)N)NC(=O)[C@H](Cc2cnc[nH]2)NC(=O)[C@H](Cc2ccc(O)cc2)N(C)C(=O)[C@H](CCCNC(=N)N)NC(=O)[C@H](CO)NC(=O)CN(C)C(=O)[C@H](Cc2cnc[nH]2)NC(=O)[C@H](Cc2c[nH]c3ccccc23)NC1=O (racemic)", "E. coli BW25113", 4),
]

Problem: Notebook entry, E. coli BW25113 assay: MIC E. coli BW25113 WUXI::MIC of CC[C@@H](C)[C@H]1NC(=O)[C@@H](Cc2ccccc2)NC(=O)CSC[C@H](C(=O)NCC(N)=O)NC(=O)[C@@H](Cc2cncn2C)NC(=O)[C@@H](CCCNC(=N)N)NC(=O)[C@@H](Cc2cnc[nH]2)NC(=O)[C@@H](Cc2ccc(O)cc2)N(C)C(=O)[C@@H](CCCNC(=N)N)NC(=O)[C@@H](CO)NC(=O)CNC(=O)[C@@H](Cc2cnc[nH]2)NC(=O)[C@@H](Cc2cccc3ccccc23)NC1=O (mixture of isomers) = ?
Result: 19

Problem: Further, for CC[C@H](C)[C@@H]1NC(=O)[C@H]([C@@H](C)O)NC(=O)CNC(=O)[C@H](Cc2ccccc2)NC(=O)CSC[C@@H](C(=O)NCC(N)=O)NC(=O)[C@H](Cc2ccccc2)NC(=O)[C@H](Cc2c[nH]c3ccccc23)NC(=O)[C@H](Cc2ccc(O)cc2)NC(=O)[C@H](CCCNC(=N)N)NC(=O)[C@H](Cc2ccccc2)NC(=O)[C@H](CCCNC(=N)N)NC(=O)[C@H](CCCNC(=N)N)NC(=O)[C@H](CCCCN)NC(=O)[C@H](Cc2cnc[nH]2)NC1=O (racemic) ?
Result: 2
